Target: T1, Recombinant Human PD-L1/CD274 Protein (hPD-L1-his) (human, UniProt Q9NZQ7 19-238)
T1 construct: range 19-238; ACRO Biosystem PD1-H5229, made in HEK293; also called human PD-L1-his; hPD-L-his
T1 sequence (Q9NZQ7 other isoform, or with tags, fused parts or gaps limits assumed): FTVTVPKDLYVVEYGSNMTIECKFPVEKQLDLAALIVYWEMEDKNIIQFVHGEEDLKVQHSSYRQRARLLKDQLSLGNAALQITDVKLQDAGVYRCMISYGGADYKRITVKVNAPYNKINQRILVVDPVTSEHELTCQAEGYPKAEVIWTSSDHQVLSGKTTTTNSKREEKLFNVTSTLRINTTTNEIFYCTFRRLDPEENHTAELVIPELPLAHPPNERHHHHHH
Experiment: ELISA, purified mouse antibody on coated hPD-L1-his
observation.type: EC50 (read off the curve)

Record excerpt, results attached:
4B6 (antibody, V domains shown, Mouse monoclonal purified from hybridoma; also called mouse monoclonal antibody 4B6) VH: EVQLQQSGPELVKPGASVKISCKASGYVFTDYYMNWVKQSHGKSLEWIGDINPNNGGTSYNHKFKGKATVTVDKSSRTAYMELLSLTSEDSAVYYCVKWGDGPFAYWGQGTLVTVSA VL: DIVMTQSQKFMSTSVGDRVSITCKASQNVGAAVAWYQQKPGQSPKLLIYSASNRYTGVPDRFTGSGSGTDFTLTISNMQSEDLADYFCQQYSNYPTFGSGTKLGIK; ~0.01 µg/mL
22C9 (antibody, V domains shown, Mouse monoclonal from hybridoma; also called mouse monoclonal antibody 22C9) VH: QVQLQQSGAELVKPGASVKLSCKASGYTFTSYWMHWVWQRPGQGLEWIGMIHPNSDITNCNENFKHTVTLTVDKSSSTAYMQLSSLTSEDSAVFYCARSDGSSYWYFDVWGTGTTVTVSS VL: SIVMTQTPKFLSVSAGDRVTITCKAGQSVNNDVAWYQQKPGQSPKLLIYYASNRYTGVPDRFTGSGYGTDFTFTISTVQAEDLAVYFCQQDFSSPLTFGAGTKLELK; ~0.08 µg/mL

Could you now consider this next binder?
Q: Returns the measured EC50 (read off the curve) for the input binder. Input: 26F5 (antibody, V domains shown, Mouse monoclonal from hybridoma; also called mouse monoclonal antibody 26F5) VH: QVQLQQPGAELVKPGASVKLSCKASGYTFPSYWMHWMKQRPGQGLEWIGMIQPSTSGTIYNERFKNQVTLTVDKSSSTAYMQLSSQTSEDSAVYYCARGTGTVDYFDYWGQGTTLTVSS VL: DIVLTQSPASLAVSLGQRATISCRASESVDSYGNSFIHWYQQKPGQPPKLLIHRASNLESGIPATFSGSGSRTDFTLTINPVEADDVATYYCQQSKEDPYTFGGGTKLEIK
Result: ~0.003 µg/mL
